Where do the numbers come from? From paper PMC8126888.

- Assay comment: in vitro
- Cond: human, microsomes, pH 7.4, HLM CLint, human liver microsomes
Attribute measured: microsomal CLint at 0.5 μM

[[record]]
item_smiles = "CCN(Cc1ccccc1)S(=O)(=O)c1ccc(NC(C)=O)cc1"
attribute_measured = "microsomal CLint at 0.5 μM"
endpoint_value = "205 µL/min/mg"

[[record]]
item_smiles = "COc1ccc(CN2CCOCC2)cc1S(=O)(=O)N(Cc1ccc(F)cc1)Cc1ccc(F)cc1"
attribute_measured = "microsomal CLint at 0.5 μM"
endpoint_value = "49 µL/min/mg"

[[record]]
item_smiles = "COCCN(Cc1ccccc1)S(=O)(=O)c1ccccc1"
attribute_measured = "microsomal CLint at 0.5 μM"
endpoint_value = "239 µL/min/mg"

[[record]]
item_smiles = "COc1ccc(F)cc1S(=O)(=O)N(Cc1ccccc1)Cc1ccccc1"
attribute_measured = "microsomal CLint at 0.5 μM"
endpoint_value = "955 µL/min/mg"

[[record]]
item_smiles = "O=C(CN(Cc1ccccc1)S(=O)(=O)c1cc(F)ccc1F)c1ccc(F)cc1"
attribute_measured = "microsomal CLint at 0.5 μM"
endpoint_value = "756 µL/min/mg"

[[record]]
item_smiles = "Nc1ncccc1S(=O)(=O)N(Cc1ccc(F)cc1)Cc1ccc(F)cc1"
attribute_measured = "microsomal CLint at 0.5 μM"
endpoint_value = "164 µL/min/mg"

[[record]]
item_smiles = "CCN(Cc1ccc(F)cc1)S(=O)(=O)c1cc(Cl)ccc1OC"
attribute_measured = "microsomal CLint at 0.5 μM"
endpoint_value = "352 µL/min/mg"

[[record]]
item_smiles = "CNC(=O)c1ccc(OC)c(S(=O)(=O)N(Cc2ccccc2)Cc2ccccc2)c1"
attribute_measured = "microsomal CLint at 0.5 μM"
endpoint_value = "316 µL/min/mg"

[[record]]
item_smiles = "CCN(Cc1ccccc1)S(=O)(=O)c1cc(Cl)ccc1OC"
attribute_measured = "microsomal CLint at 0.5 μM"
endpoint_value = "304 µL/min/mg"


###

- System: primary peritoneal mouse macrophages (PMM)
- Cond: PMM IC50 / L. infantum IC50
Attribute measured: SI (vs PMM)

[[record]]
item_smiles = "COc1ccc(OC)c(S(=O)(=O)N(Cc2ccccc2)C2CCNCC2)c1"
study_system = "primary peritoneal mouse macrophages (PMM)"
attribute_measured = "SI (vs PMM)"
endpoint_value = 2

[[record]]
item_smiles = "CCCCCOc1cc(C)c(Cl)cc1S(N)(=O)=O"
study_system = "primary peritoneal mouse macrophages (PMM)"
attribute_measured = "SI (vs PMM)"
endpoint_value = 1

[[record]]
item_smiles = "COCCN(C(C)=O)c1ccc(S(=O)(=O)N(CCOC)Cc2ccccc2)cc1"
study_system = "primary peritoneal mouse macrophages (PMM)"
attribute_measured = "SI (vs PMM)"
endpoint_value = 1

[[record]]
item_smiles = "COCCN(Cc1ccccc1)S(=O)(=O)c1ccccc1"
study_system = "primary peritoneal mouse macrophages (PMM)"
attribute_measured = "SI (vs PMM)"
endpoint_value = 2


###

Recorded pIC50 for the following molecules
- System: Leishmania infantum MHOM/MA(BE)/67/ITMAP263 intracellular amastigotes
- Assay comment: microbe, parasite or virus in culture
- Cond: Macrophage, in Mus musculus, read-out: L. infantum MHOM/MA(BE)/67/ITMAP263 intracellular amastigotes IC50, intracellular amastigotes
pIC50: −log10 of the molar value.
Attribute measured: pIC50

[[record]]
molecule = "COCCN(Cc1ccc(F)cc1)S(=O)(=O)c1cc(C#N)ccc1OC [DNDI0003368395]"
endpoint_value = 5.05

[[record]]
molecule = "COc1ccc(C(N)=O)cc1S(=O)(=O)N(Cc1ccccc1)Cc1ccccc1 [DNDI0003366135]"
endpoint_value = 5.13

[[record]]
molecule = "O=C1c2ccccc2S(=O)(=O)N(Cc2ccccc2)C1Cc1ccccc1 (stereo not drawn) [DNDI0003370098]"
endpoint_value = 4.93

[[record]]
molecule = "O=S(=O)(c1cccnc1OC(F)F)N(Cc1ccc(F)cc1)Cc1ccc(F)cc1 [DNDI0003371167]"
endpoint_value = 5.03

[[record]]
molecule = "COc1ccc(OC)c(S(=O)(=O)N(Cc2ccc(F)cc2)c2ccc(F)cc2)c1 [DNDI0003371170]"
endpoint_value = 4.95

[[record]]
molecule = "O=S(=O)(NCc1ccc(F)cc1)c1cccnc1OCc1ccccc1 [DNDI0003369120]"
endpoint_value = 5.07

